Entries and their measured pIC50 follow.
# Test system: HeLa
# test_summary: Inhibition of cervical carcinoma cell line (HeLa) growth
# Type: functional, cell-based
# measurement_context: Homo sapiens
// pIC50: -log10(molar conc.)

O=C(NO)NC(Cc1ccccc1)C(=O)NC1CCCCC1 (centres undefined): 4.24
CC(C)C(NC(=O)n1nnc2ccccc21)C(=O)NC1CCCC1 (centres undefined): 4.02
O=C(NO)NC(C(=O)NC(c1ccccc1)c1ccccc1)c1ccccc1 (centres undefined): 4.38
CC(C)C(NC(=O)n1nnc2ccccc21)C(=O)NC1CCCCC1 (centres undefined): 4.02
O=C(NC1CCCCC1)C(Cc1ccccc1)NC(=O)n1nnc2ccccc21 (centres undefined): 4.46

Inquiry: Param item = O=C(NC1CCCC1)C(Cc1ccccc1)NC(=O)n1nnc2ccccc21 (centres undefined) ; retrieve measured pIC50.
Reply text: 4.27

Inquiry: Dear colleague, I am looking for the recorded pIC50 of the following compound: O=C(NC(c1ccccc1)c1ccccc1)C(Cc1ccccc1)NC(=O)n1nnc2ccccc21 (centres undefined)
Reply text: 4.52

Inquiry: What does the data say about its pIC50? Entry: O=C(NC1CCCCC1)C(NC(=O)n1nnc2ccccc21)c1ccccc1 (centres undefined)
Reply text: 4.17

Inquiry: # lookup: pIC50 of O=C(NO)NC(Cc1ccccc1)C(=O)NC(c1ccccc1)c1ccccc1 (centres undefined)
Reply text: 4.40

Inquiry: pIC50 for O=C(NCC1CCCCC1)C(NC(=O)n1nnc2ccccc21)c1ccccc1 (centres undefined) ?
Reply text: 4.10

Inquiry: I'd like to know its pIC50. The compound in question is O=C(NC(c1ccccc1)c1ccccc1)C(NC(=O)n1nnc2ccccc21)c1ccccc1 (centres undefined)
Reply text: 4.48

----------
# System: L1210
# test_summary: Inhibition of murine leukemia cells (L1210) growth
# Assay type: functional, cell-based
# measurement_context: Mus musculus
endpoint: IC50

Please review the following examples before continuing.
O=C(NO)NC(Cc1ccccc1)C(=O)NC1CCCCC1 (centres undefined): 18 µM
O=C(NO)NC(C(=O)NC(c1ccccc1)c1ccccc1)c1ccccc1 (centres undefined): 18 µM
O=C(NO)NC(Cc1ccccc1)C(=O)NC1CCCC1 (centres undefined): 145 µM
CC(C)C(NC(=O)n1nnc2ccccc21)C(=O)NC1CCCC1 (centres undefined): > 200 µM
O=C1NC(c2ccccc2)C(=O)N1C1CCCC1 (centres undefined): > 200 µM

Inquiry: Hi! What's the reported IC50 for O=C(C(NC(=O)n1nnc2ccccc21)c1ccccc1)N1CCCCC1 (centres undefined) on L1210?
Reply text: 82 µM

Inquiry: What is its IC50 for L1210? Entry: O=C(NO)NC(Cc1ccccc1)C(=O)NC(c1ccccc1)c1ccccc1 (centres undefined)
Reply text: 18 µM

Inquiry: Look up IC50 with L1210 for this compound: O=C(NC1CCCC1)C(Cc1ccccc1)NC(=O)n1nnc2ccccc21 (centres undefined)
Reply text: 68 µM

----------
# Test system: MOLT-4
# test_summary: Inhibition of human T-lymphocyte cell line (Molt4/C8) growth
# Type: functional, cell-based
Consider the reported IC50 of an entry and match it to a band in c1 = under 60 µM, c2 = from 60 µM up to 100 µM, c3 = 100 µM and over

Solved entries:
CC(C)C1NC(=O)N(C2CCCC2)C1=O (configuration not stated): c3
O=C(NC1CCCCC1)C(NC(=O)n1nnc2ccccc21)c1ccccc1 (configuration not stated): c2
O=C(NC(c1ccccc1)c1ccccc1)C(NC(=O)n1nnc2ccccc21)c1ccccc1 (configuration not stated): c2
CC(C)C1NC(=O)N(C2CCCCC2)C1=O (configuration not stated): c3
O=C(NO)NC(C(=O)NCc1ccccc1)c1ccccc1 (configuration not stated): c1
O=C(NO)NC(C(=O)NC(c1ccccc1)c1ccccc1)c1ccccc1 (configuration not stated): c1

Inquiry: The entry to classify is CCC(C)C(NC(=O)NO)C(=O)NC1CCCCC1 (configuration not stated) ; which class holds it?
Reply text: c3

Inquiry: Please report the category associated with CC(C)C(NC(=O)NO)C(=O)NC1CCCC1 (configuration not stated) , nothing else.
Reply text: c3

Inquiry: Hey, which category is O=C(NO)NC(Cc1ccccc1)C(=O)NC1CCCC1 (configuration not stated) in, do you know?
Reply text: c3
